Biological target: UniProt:P14920
Sequence (P14920 whole entry): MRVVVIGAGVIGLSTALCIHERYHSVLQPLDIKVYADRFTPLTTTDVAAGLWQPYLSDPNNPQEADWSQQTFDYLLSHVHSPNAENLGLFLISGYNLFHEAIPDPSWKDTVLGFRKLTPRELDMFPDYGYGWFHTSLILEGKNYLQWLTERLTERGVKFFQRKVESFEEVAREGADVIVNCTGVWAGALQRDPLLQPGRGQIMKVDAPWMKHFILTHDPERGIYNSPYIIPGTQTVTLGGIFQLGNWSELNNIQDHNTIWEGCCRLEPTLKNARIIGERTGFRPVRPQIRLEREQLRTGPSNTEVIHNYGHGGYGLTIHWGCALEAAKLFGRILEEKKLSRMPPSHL
pIC50: −log10 of the molar value.
readout_name: pIC50

// known answers, use as guide
O=C(O)c1cc2occ(/C=C/c3ccccc3)c2[nH]1: > 4.00
O=C(O)c1cc2oc(Cc3ccccc3)cc2[nH]1: > 4.00
O=C(O)c1cc2occ(CCc3ccccc3)c2[nH]1: > 6.00

Turning now to a further record.
Query block: # get_value(readout='pIC50', item= C/C=C\c1coc2cc(C(=O)O)[nH]c12 )
Result block: > 4.00
